target: human CB2R (Homo sapiens, UniProt P34972); construct: host or cells: CHO cells; assay: CB2R mediated modulation of cAMP synthesis; assay type: cell-based; details: read-out: CB2 CAMP @EC50
Sequence (P34972 whole entry): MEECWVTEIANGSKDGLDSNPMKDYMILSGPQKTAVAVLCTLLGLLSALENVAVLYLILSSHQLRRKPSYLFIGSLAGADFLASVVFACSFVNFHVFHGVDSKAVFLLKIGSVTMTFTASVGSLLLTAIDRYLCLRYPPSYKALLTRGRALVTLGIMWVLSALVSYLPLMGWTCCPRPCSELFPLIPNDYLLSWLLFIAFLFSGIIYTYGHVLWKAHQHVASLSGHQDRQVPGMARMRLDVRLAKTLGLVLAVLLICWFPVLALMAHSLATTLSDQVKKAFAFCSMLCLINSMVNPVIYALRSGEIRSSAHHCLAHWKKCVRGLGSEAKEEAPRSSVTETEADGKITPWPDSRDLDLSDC
Reported log10 EC50 values for a set of compounds
Response schema: value (number) is log10 of EC50 in units of nM.

Solved cases below.
1. Cc1cc(Cl)cc2sc(N3CCCN(C(=O)C4CCOCC4)CC3)nc12 [Example 42]: 2.34
2. O=C(C1CCC(F)(F)CC1)N1CCCN(c2nc3cc(C(F)(F)F)ccc3o2)CC1 [Example 67]: 1.00
3. Cn1nc(C(C)(C)C)cc1NC(=O)N1CCCN(c2ncc(Cl)cc2Cl)CC1 [Example 28]: 2.70
4. Cc1ccc(C)c2sc(N3CCCN(C(=O)C4CCOCC4)CC3)nc12 [Example 46]: 2.65
5. FC(F)(F)c1cnc(N2CCCN(c3nc4cc(C(F)(F)F)ccc4o3)CC2)c(Cl)c1 [Example 49]: 1.73
6. O=C(C1CCOCC1)N1CCCN(c2nc3ccc(Cl)cc3o2)CC1 [Example 70]: 2.26
7. Cc1csc(NC(=O)N2CCCN(c3ncc(C(F)(F)F)cc3Cl)CC2)n1 [Example 6]: 1.48
8. O=C(C1CCOCC1)N1CCCN(c2ncc(CN3CCOCC3)s2)CC1 [Example 54]: 1.15

Okay, now this compound:
Incoming: What measured log10 EC50 is associated with O=C(N1CCOCC1)N1CCCN(c2nc3cc(Cl)ccc3o2)CC1 [Example 72] on human CB2R (Homo sapiens, UniProt P34972)?
Outgoing: 2.69

Origin of the recorded values: patent US20100261708A1
